Reference source for all entries: PubChem BioAssay (NCI)

Tested on: HS 578T breast
assay: NCI tumour cell line growth inhibition, 48 h
Can you tell me TGI for the items I'm about to list?
# number only, unit µM dropped from output

Query (compound): `O=c1ncc(-c2ccc(C(F)(F)F)cc2)c(NC2CCCCCC2)[nH]1` ; field requested: TGI 53.9

Query (compound): CC1=CC(C)C(C)N(CCNC(=O)Nc2ccccc2)c2ccccc21 (stereo not given) ; field requested: TGI 30.3

Query (compound): CC1CC(N)=Nc2ccccc2N1Cc1ccccc1 (stereo not given) ; field requested: TGI 23.8

Query (compound): `Cc1[nH]c2c(C)ccc(C)c2c1CC(=O)O` ; field requested: TGI 60.4

Query (compound): `CC(C)(C)CN1[C@@H]2CCCC[C@H]2N(CC(C)(C)C)P1(=O)Cc1ccccc1` ; field requested: TGI 31

Query (compound): O=C(OC(C(=O)O)C(OC(=O)c1ccccc1)C(=O)O)c1ccccc1 (stereo not given) (tested in a mixture with another compound) ; field requested: TGI 64.8

Query (compound): `CCCCCCN(CCCCCC)C(=N)c1ccnc2ccccc12` ; field requested: TGI 47.1

Query (compound): O=C1C2CC3C(CC2C(=O)[N]1[Sn]([c]1ccccc1)([c]1ccccc1)[c]1ccccc1)C1(Cl)C(Cl)=C(Cl)C3(Cl)C1(Cl)Cl (stereo not given) ; field requested: TGI 1.11

Query (compound): `COc1ccc(OC)c(/C=C/c2nnc(Nc3ccc(Cl)cc3)o2)c1` ; field requested: TGI 8.01
